Consider the following molecules; for each one, report its DA Reuptake Inhibition.
# Subject of test: DA Transporter (hDAT) (Homo sapiens, UniProt Q01959)
# Sequence (Q01959 whole entry): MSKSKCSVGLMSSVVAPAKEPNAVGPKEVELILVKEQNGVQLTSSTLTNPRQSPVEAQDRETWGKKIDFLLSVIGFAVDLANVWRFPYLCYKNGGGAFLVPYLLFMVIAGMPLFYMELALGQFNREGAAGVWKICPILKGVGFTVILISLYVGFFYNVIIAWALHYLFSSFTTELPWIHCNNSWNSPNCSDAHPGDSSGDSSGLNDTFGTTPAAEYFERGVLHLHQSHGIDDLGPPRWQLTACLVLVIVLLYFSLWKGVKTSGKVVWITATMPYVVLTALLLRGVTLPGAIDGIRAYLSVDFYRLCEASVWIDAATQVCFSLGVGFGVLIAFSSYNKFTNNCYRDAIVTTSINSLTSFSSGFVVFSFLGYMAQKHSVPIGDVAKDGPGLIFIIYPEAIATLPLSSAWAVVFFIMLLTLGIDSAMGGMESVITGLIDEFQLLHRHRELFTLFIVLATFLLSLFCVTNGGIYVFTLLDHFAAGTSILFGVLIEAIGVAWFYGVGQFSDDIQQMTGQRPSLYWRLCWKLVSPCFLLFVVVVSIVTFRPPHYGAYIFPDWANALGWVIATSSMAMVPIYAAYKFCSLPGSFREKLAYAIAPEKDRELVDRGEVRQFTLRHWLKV
# Assay overview: Inhibition of [3H]-DA reuptake in HEK 293 cells stably expressing hDAT
# Condition summary: 10 μmol/L final concentration (b487 prints 0.1 mmol/L); HEK 293 hDAT cells, [3H]-DA
Express your answer in %, writing the number without its unit.

# lookup: DA Reuptake Inhibition of CN(C)CCC(c1cc2ccccc2s1)N1CCOCC1 (stereo not drawn)
39.2

Also check COc1ccc(C(CCN(C)Cc2ccccc2)N2CCOCC2)cc1OC (stereo not drawn)
59.2

Input CN(C)CCCC(c1csc2ccccc12)N1CCOCC1 (stereo not drawn)
78.0

Entry Clc1ccc(C(CCN2CCOCC2)N2CCCC2)cc1Cl (stereo not drawn) please
106.4

Same lookup for CN(C)CCCC(c1ccc(Cl)c(Cl)c1)N1CCOCC1 (stereo not drawn) , please.
67.0

Param item: CN(C)CCC(c1c[nH]c2ccccc12)N1CCOCC1 (stereo not drawn)
75.6

###

# Subject of test: DA Transporter (hDAT) (Homo sapiens)
# Assay overview: Inhibition of [3H]-DA reuptake in HEK 293 cells stably expressing hDAT
# Condition summary: 10 μmol/L final concentration (b487 prints 0.1 mmol/L); HEK 293 hDAT cells, [3H]-DA
Quick rule: DA Reuptake Inhibition of at least 50% means rule met, below that means rule not met.

Entry CN(C)CCC(c1ccc(Cl)c(Cl)c1)N1CCOCC1 (stereo not drawn) [VI-4] : is its DA Reuptake Inhibition no less than 50%?
rule met

Could you do the same for CN(C)CCC(c1cc2ccccc2s1)N1CCCCC1 (stereo not drawn) [VI-22] , please?
rule met

// repeat for CN(C)CCC(c1cccs1)N1CCOCC1 (stereo not drawn) [VI-61] and report
rule met

Next compound up: COc1ccc(C(CCN(C)C)N2CCOCC2)cc1 (stereo not drawn) [VI-38]
rule not met

// same read-out, input: CN(C)CCC(c1ccc(F)cc1F)N1CCOCC1 (stereo not drawn) [VI-48]
rule not met

Next compound: COc1ccc2cc(C(CCN(C)C)N3CCOCC3)ccc2c1Cl (stereo not drawn) [VI-34]
rule not met

###

# Subject of test: UniProtKB P31645
# Assay overview: Inhibition of [3H]-5-HT reuptake in HEK 293 cells stably expressing hSERT
# Condition summary: HEK293, read-out: 5-HT Reuptake Inhibition
I'd appreciate it if you could supply inhibition at 10 µM values for the items below.
Reply with just the number (in %).

Dear colleague, I am looking for the recorded inhibition at 10 µM of the following compound: CN(C)CCC(c1csc2ccccc12)N1CCCC1 (stereo not shown)
96.6

Queued: CCN(CC)CCC(c1ccc(Cl)c(Cl)c1)N1CCCC1 (stereo not shown)
98.2

Subsequent entry: Clc1ccc([C@]23CNC[C@H]2C3)cc1Cl [DOV-21947, reference compound]
100

Note, next up: CN(C)CCC(c1csc2ccccc12)N1CCCCC1 (stereo not shown)
90.5

CN(C)CCC(c1ccc(Cl)c(Cl)c1)N1CCCC1 (stereo not shown) , same question.
94.8

Proceed to CN(C)CCC(c1cc2ccccc2s1)N1CCCC1 (stereo not shown)
95.3

Now this one: COc1ccc2cc(C(CCN(C)C)N3CCCC3)ccc2c1Cl (stereo not shown)
98.3

###

# Subject of test: 5-HT Transporter (hSERT) (Homo sapiens, UniProt P31645)
# Sequence (P31645 whole entry): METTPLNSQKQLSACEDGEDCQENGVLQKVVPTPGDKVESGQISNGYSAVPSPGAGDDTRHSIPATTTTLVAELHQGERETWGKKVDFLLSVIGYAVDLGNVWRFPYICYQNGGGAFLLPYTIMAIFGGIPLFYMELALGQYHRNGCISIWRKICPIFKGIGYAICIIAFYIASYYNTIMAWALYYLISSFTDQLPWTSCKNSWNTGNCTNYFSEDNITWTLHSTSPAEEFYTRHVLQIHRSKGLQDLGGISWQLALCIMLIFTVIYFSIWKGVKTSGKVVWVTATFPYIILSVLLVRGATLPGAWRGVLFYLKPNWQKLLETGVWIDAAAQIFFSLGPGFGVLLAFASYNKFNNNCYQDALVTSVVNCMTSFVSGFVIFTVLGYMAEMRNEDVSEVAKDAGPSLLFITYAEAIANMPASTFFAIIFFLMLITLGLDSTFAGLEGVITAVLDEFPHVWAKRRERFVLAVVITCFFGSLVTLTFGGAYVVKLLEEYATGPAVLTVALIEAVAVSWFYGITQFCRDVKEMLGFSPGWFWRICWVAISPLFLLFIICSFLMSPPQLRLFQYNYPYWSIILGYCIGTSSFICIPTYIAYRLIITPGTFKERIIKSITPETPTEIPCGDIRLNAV
# Assay overview: Inhibition of [3H]-5-HT reuptake in HEK 293 cells stably expressing hSERT;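 note: compound preincubated 10 min at 30 °C, then 10 min uptake, filter-bound radioactivity counted by scintillation, inhibition relative to total (blank) minus non-specific (positive control) uptake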
# Condition summary: 10 μmol/L final concentration (b487 prints 0.1 mmol/L); HEK 293 hSERT cells, [3H]-5-HT
Measurement kind: 5-HT Reuptake Inhibition
Kindly format the answer as number then unit.

Query: 5-HT Reuptake Inhibition; subject: COc1ccc(C(CCN(C)C)N2CCOCC2)cc1 (stereo not drawn) [VI-38]
25.9%

Same lookup for CN(C)CCC(c1c[nH]c2ccccc12)N1CCOCC1 (stereo not drawn) [VI-31] , please.
87.9%

What about this compound? CN(C)CCC(c1cccs1)N1CCOCC1 (stereo not drawn) [VI-61]
78.9%

Next up: Clc1ccc(C(CCN2CCOCC2)N2CCCC2)cc1Cl (stereo not drawn) [VI-6]
106.3%

Then this compound: CN(C)CCCC(c1ccc(Cl)c(Cl)c1)N1CCOCC1 (stereo not drawn) [VI-44]
45.8%

Same again, this time with COc1ccc2cc(C(CCN(C)C)N3CCOCC3)ccc2c1Cl (stereo not drawn) [VI-34]
47.3%

Record: CN(C)CCC(c1cc2ccccc2s1)N1CCOCC1 (stereo not drawn) [VI-25]
91.5%

And then COc1ccc(C(CCN(C)Cc2ccccc2)N2CCOCC2)cc1OC (stereo not drawn) [VI-56] , what is it?
78.0%

Another: CN(C)CCCC(c1csc2ccccc12)N1CCOCC1 (stereo not drawn) [VI-46]
92.3%

Would you mind doing CN(C)CCC(c1ccc(F)cc1F)N1CCOCC1 (stereo not drawn) [VI-48] as well?
65.0%

Same for CN(C)CCC(c1cc2ccccc2s1)N1CCCCC1 (stereo not drawn) [VI-22]
96.3%

CN(C)CCC(c1ccc(Cl)c(Cl)c1)N1CCOCC1 (stereo not drawn) [VI-4] ?
101.9%
